experimental-system: Tyrosinase (Mus musculus)
Sequence (P11344 whole entry): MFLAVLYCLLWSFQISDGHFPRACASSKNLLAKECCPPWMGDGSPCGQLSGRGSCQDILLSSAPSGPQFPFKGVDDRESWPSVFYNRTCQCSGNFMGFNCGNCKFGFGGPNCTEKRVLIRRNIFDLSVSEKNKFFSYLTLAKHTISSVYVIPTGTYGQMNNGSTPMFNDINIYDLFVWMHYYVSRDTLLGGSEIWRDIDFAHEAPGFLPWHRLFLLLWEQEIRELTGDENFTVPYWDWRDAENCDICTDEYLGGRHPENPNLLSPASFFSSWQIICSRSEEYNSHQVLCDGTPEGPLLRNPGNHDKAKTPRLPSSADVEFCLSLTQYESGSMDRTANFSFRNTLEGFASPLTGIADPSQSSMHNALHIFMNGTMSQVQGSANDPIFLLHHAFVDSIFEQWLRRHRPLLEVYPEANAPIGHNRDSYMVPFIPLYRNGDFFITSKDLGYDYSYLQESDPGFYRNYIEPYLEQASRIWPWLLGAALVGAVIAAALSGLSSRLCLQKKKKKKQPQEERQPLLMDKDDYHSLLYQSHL
procedure-summary: Apparent noncompetitive inhibition of catecholase activity of tyrosinase in mouse B16 cells by Lineweaver-Burke plot analysis
Type: cell-based
conditions: read-out: Ki(app)
measured-metric: Ki (µM)
Form entry: value (µM) — number only.

test-smiles	experimental-system	reported-value
CC(=O)NCCc1c[nH]c2ccc(O)cc12	Tyrosinase (Mus musculus)	240

Read the next record carefully.
**Query** Lab note: need Ki for O=C(NCCc1c[nH]c2ccc(O)cc12)c1ccc(O)c(O)c1 on Tyrosinase (Mus musculus), anyone have it?
**Result** 64

====

procedure-summary: Cytotoxicity against mouse B16 cells assessed as cell viability at 20 uM after 2 days by tetrazolium reduction assay
Type: cell-based
conditions: read-out: Activity
Catalogue of compounds with associated viability at 48 h, 20 µM
Form entry: value (%) — number only.

test-smiles	units-symbol	viability at 48 h, 20 µM
O=C(NCCc1ccc(O)cc1)c1ccc(O)c(O)c1	%	88

**Query** Name the recorded viability at 48 h, 20 µM for O=C(NCCc1c[nH]c2ccccc12)c1ccc(O)cc1 .
**Result** 94

**Query** Same for Oc1ccc2[nH]ccc2c1
**Result** 100

**Query** Same for CC(=O)NCCc1c[nH]c2ccc(O)cc12
**Result** 93

**Query** Same for O=C(NCCc1c[nH]c2ccc(O)cc12)c1ccc(O)cc1O
**Result** 101

**Query** Same for COc1cc(C(=O)NCCc2c[nH]c3ccc(O)cc23)ccc1O
**Result** 93

====

experimental-system: UniProt:P11344
procedure-summary: Inhibition of catecholase activity of tyrosinase in mouse B16 cells assessed as dopachrome formation
measured-metric: pIC50
On this scale, pIC50 is minus log10 of a concentration expressed in M (mol/L).

Below, each entry is followed by its recorded pIC50 result.
compound	pIC50
Oc1ccc2[nH]ccc2c1	4.17
COc1cc(C(=O)NCCc2c[nH]c3ccc(O)cc23)ccc1O	3.68
NCCc1c[nH]c2ccc(O)cc12 [SEROTONIN]	3.26
O=C(NCCc1c[nH]c2ccc(O)cc12)c1ccc(O)cc1	3.63
CC(=O)NCCc1c[nH]c2ccc(O)cc12 [ACETYLSEROTONIN]	3.51

**Query** Lab note: need pIC50 for COc1cc(/C=C/C(=O)NCCc2c[nH]c3ccc(O)cc23)ccc1O [N-FERULOYL SEROTONIN] on UniProt:P11344, anyone have it?
**Result** 3.67

**Query** Same for O=C(/C=C/c1ccc(O)c(O)c1)NCCc1c[nH]c2ccc(O)cc12 [N-CAFFEOYLSEROTONIN]
**Result** 4.55

**Query** Same for O=C(NCCc1c[nH]c2ccc(O)cc12)c1ccccc1
**Result** 3.48

**Query** Same for O=C(NCCc1c[nH]c2ccc(O)cc12)c1ccc(O)cc1O
**Result** 4.38

**Query** Same for O=C(NCCc1c[nH]c2ccc(O)cc12)c1ccc(O)c(O)c1
**Result** 4.14

====

Tested on: B16
procedure-summary: Antimelanogenic activity in mouse B16 cells assessed as inhibition of extracellular melanin formation after 2 days
conditions: B16, 48 h
Catalogue of compounds with associated pIC50
On this scale, pIC50 is minus log10 of a concentration expressed in M (mol/L).

Below, each entry is followed by its recorded pIC50 result.
test-smiles	measured-metric	reported-value
Oc1ccc2[nH]ccc2c1	pIC50	4.89
O=C(/C=C/c1ccc(O)c(O)c1)NCCc1c[nH]c2ccc(O)cc12	pIC50	4.82
COc1cc(/C=C/C(=O)NCCc2c[nH]c3ccc(O)cc23)ccc1O	pIC50	4.64
O=C(NCCc1c[nH]c2ccc(O)cc12)c1ccc(O)cc1O	pIC50	4.82
O=c1cc(CO)occ1O	pIC50	3.95

Read the next record carefully.
**Query** Name the recorded pIC50 for O=C(NCCc1c[nH]c2ccc(O)cc12)c1ccc(O)c(O)c1 .
**Result** 5.52

====

experimental-system: Tyrosinase (Mus musculus, UniProt P11344)
procedure-summary: Apparent noncompetitive inhibition of catecholase activity of tyrosinase in mouse B16 cells by Lineweaver-Burke plot analysis
Assay type: cell-based
conditions: in the assay text read “Competitive” for “Apparent noncompetitive”; read-out: Ki(app)
measured-metric: pKi
On this scale, pKi is minus log10 of a concentration expressed in M (mol/L).

**Query** Name the recorded pKi for NC(=O)c1ccc(O)c(O)c1 [PROTOCATECHUAMIDE] .
**Result** 2.43

====

procedure-summary: Cytotoxicity against mouse B16 cells assessed as cell viability at 20 uM after 2 days by tetrazolium reduction assay
Type: cell-based
conditions: read-out: Activity
Catalogue of compounds with associated viability at 48 h, 20 µM
Form entry: value (%) — number only.

Below, each entry is followed by its recorded viability at 48 h, 20 µM result.
test-smiles	viability at 48 h, 20 µM [%]
O=C(NCCc1c[nH]c2ccc(O)cc12)c1ccc(O)c(O)c1	99
O=C(/C=C/c1ccc(O)c(O)c1)NCCc1c[nH]c2ccc(O)cc12	99
O=C(/C=C/c1ccc(O)c(O)c1)NCCc1c[nH]c2ccccc12	54

**Query** Name the recorded viability at 48 h, 20 µM for O=C(NCCc1c[nH]c2ccccc12)c1ccccc1 .
**Result** 85

**Query** Same for COc1cc(/C=C/C(=O)NCCc2c[nH]c3ccccc23)ccc1O
**Result** 102

**Query** Same for COc1cc(/C=C/C(=O)NCCc2c[nH]c3ccc(O)cc23)ccc1O
**Result** 100

====

procedure-summary: Cytotoxicity against mouse B16 cells assessed as cell viability at 20 uM after 2 days by tetrazolium reduction assay
Type: cell-based
conditions: read-out: Activity
Catalogue of molecules with associated viability at 48 h, 20 µM
Form entry: value (%) — number only.

Below, each entry is followed by its recorded viability at 48 h, 20 µM result.
molecule	reported-value
O=C(/C=C/c1ccc(O)c(O)c1)NCCc1ccc(O)cc1	84
O=C(NCCc1c[nH]c2ccc(O)cc12)c1ccc(O)cc1	100
COc1ccc2[nH]cc(CCNC(=O)/C=C/c3ccc(O)c(O)c3)c2c1	41
NCCc1c[nH]c2ccc(O)cc12 [SEROTONIN]	101
O=C(NCCc1c[nH]c2ccccc12)c1ccc(O)c(O)c1	69

Read the next record carefully.
**Query** Name the recorded viability at 48 h, 20 µM for O=C(NCCc1c[nH]c2ccc(O)cc12)c1ccccc1 .
**Result** 96
